biological target: Human SIRPα v1 (antigen of the Octet and Biacore affinity measurements) (human, UniProt P78324 31-370, limits assumed); assay: SPR (Biacore), 1:1 binding model
Sequence (P78324 31-370 limits assumed): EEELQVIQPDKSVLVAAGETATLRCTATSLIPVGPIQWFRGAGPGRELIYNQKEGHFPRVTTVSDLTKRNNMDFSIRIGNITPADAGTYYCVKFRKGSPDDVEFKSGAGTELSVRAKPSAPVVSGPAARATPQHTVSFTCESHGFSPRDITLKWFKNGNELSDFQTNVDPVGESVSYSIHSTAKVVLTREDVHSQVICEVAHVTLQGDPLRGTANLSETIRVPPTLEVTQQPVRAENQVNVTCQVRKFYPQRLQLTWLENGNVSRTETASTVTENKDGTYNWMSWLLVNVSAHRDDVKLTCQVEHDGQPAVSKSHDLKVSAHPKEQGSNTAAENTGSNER
Please respond with reported pKd for every item in the list.
// field semantics: pKd = negative decimal log of concentration (mol/L)

Input: Tell me the measured pKd of hu025.059 (antibody, V domains shown, Humanized 025; also called hu025.59) VH: EVQLVQSGAEVKKPGATVKISCKASGFNIKDYYMHWVQQAPGKGLEWIGRIDPEDAETKYAPKFQGRVTITADTSTNTAYMELSSLRSEDTAVYYCDRGLAYWGQGTLVTVSS VL: EIVLTQSPATLSLSPGERATLSCSASSSVSSSYLYWYQQKPGQAPKLWIYSTSNLASGIPARFSGSGSGTDYTLTISSLEPEDFAVYYCHQWSSYPYTFGQGTKLEIK , please.
Output: 8.64

Input: pKd for hu025.060 (antibody, V domains shown, Humanized 025; also called hu025.60) VH: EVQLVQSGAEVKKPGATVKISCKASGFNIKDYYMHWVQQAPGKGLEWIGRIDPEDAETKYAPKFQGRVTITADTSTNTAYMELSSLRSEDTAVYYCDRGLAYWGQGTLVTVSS VL: EIVLTQSPATLSLSPGERATLSCSASSSVSSSYLYWYQQKPGQAPKLWIYSTSNLASGIPARFSGSGSGTDFTLTISSLEPEDFAVYYCHQWSSYPYTFGQGTKLEIK ?
Output: 8.70

Input: Quick one: pKd of hu025.021 (antibody, V domains shown, Humanized 025; also called hu025.21) VH: EVQLVQSGAEVKKPGATVKISCKVSGFNIKDYYMHWVQQAPGKGLEWIGRIDPEDAETKYAPKFQGRVTITADTSTNTAYMELSSLRSEDTAVYYCDRGLAYWGQGTLVTVSS VL: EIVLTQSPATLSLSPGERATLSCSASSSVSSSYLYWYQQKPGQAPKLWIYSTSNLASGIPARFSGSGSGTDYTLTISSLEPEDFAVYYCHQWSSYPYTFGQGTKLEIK ?
Output: 8.52

Input: I'd like to know its pKd. The binder in question is 025c (antibody, V domains shown, also called chimeric antibody 025c; parental antibody of 025c) VH: EVQLQQSGAELVKPGASVKLSCTASGFNIKDYYMHWVKQRTEQGLEWIGRIDPEDGETKYAPKFQGKATITADTSSNTAYLQLSSLTSEDTAVYYCDRGLAYWGQGTLVTVSA VL: QIVLTQSPAIMSASPGEKVTLTCSASSSVSSSYLYWYQQKPGSSPKLWIYSTSNLASGVPARFSGSGSGTSYSLTISSMEAEDAASYFCHQWSSYPYTFGGGTKLEIK
Output: 8.82

Input: Given hu025.023 (antibody, V domains shown, Humanized 025; also called hu025.23) VH: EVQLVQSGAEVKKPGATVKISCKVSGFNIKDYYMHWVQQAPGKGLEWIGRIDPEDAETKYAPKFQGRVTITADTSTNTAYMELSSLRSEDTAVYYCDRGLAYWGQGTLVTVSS VL: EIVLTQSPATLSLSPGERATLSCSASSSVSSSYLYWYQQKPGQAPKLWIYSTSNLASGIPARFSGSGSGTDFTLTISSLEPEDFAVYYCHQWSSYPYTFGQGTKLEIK , state its recorded pKd.
Output: 8.57

Source: patent US20250270315A1
